Known pest or weed control at 200 ppm of a selection of molecules
Test system: Green Peach Aphid (Myzus persicae)
PROTOCOL DESCRIPTION: Insecticidal test for green peach aphid in foliar spray assay on cabbage
Format: in vivo
CONDITION DESCRIPTION: 72 h, 200 ppm foliar spray on cabbage seedlings, graded after 3 d, corrected % control (Abbott), read-out: Rating against green peach aphid on cabbage (foliar spray)

CC(c1ccc(C(F)(F)F)nc1)S(C)(=O)=NC(=S)N(C)C (centres unmarked)	80 to 100%
COc1ccc(NC(=S)N=S(C)(=O)C(C)c2ccc(C(F)(F)F)nc2)cc1 (centres unmarked)	< 80%
CS(=O)(Cc1ccc(C(F)(F)F)nc1)=NC(N)=S (centres unmarked)	80 to 100%
CCN(CC)C(=S)N=S(C)(=O)C(C)c1ccc(C(F)(F)F)nc1 (centres unmarked)	80 to 100%

In the following, a different molecule is considered.
GET /value?item= CC(c1ccc(C(F)(F)F)nc1)S(C)(=O)=NC(=S)NCc1ccco1 (centres unmarked) &field=pest or weed control at 200 ppm returns 80 to 100%

Where these numbers come from: patent US8445689B2
